System: Amaranthus retroflexus
Assay: Pre-emergence herbicidal efficacy, AMARE
Type: in vivo
Details: Table B2, application rate 320 g/ha, scored visually after about 3 weeks vs untreated controls
Excerpt: C.1 Pre-Emergence Herbicidal Action and Crop Plant Compatibility Seeds of monocotyledonous and dicotyledonous weed plants and crop plants are placed in plastic or organic planting pots and covered with soil. […] After about 3 weeks, the effect of the preparations is scored visually in comparison with untreated controls as percentages. […]
Give Herbicidal efficacy against AMARE for every item shown.
Answers are plain numbers, in %.

COMPOUND	TARGET_UNDER_TEST	Herbicidal efficacy against AMARE (%)
Cc1ccc2c(c1)C(Nc1nc3n(n1)CCC(=O)N3Cc1ccccc1)CCC2 (stereo not shown) [Example I-315]	Amaranthus retroflexus	80
Cc1ccc2c(c1)[C@H](Nc1nc3n(n1)CCN(C(=O)C1CCCCC1)C3)CCC2 [Example I-187]	Amaranthus retroflexus	100
Cc1ccc2c(c1)[C@H](Nc1nc3n(n1)CCN(S(=O)(=O)C1CCCC1)C3)CCC2 [Example I-201]	Amaranthus retroflexus	100

Sample CC1CCc2ccccc2C1Nc1nc2n(n1)CCC[S+]2[O-] (stereo not shown) [Example I-362] — what was its Herbicidal efficacy against AMARE? 100
